- TARGET ENTITY: Follistatin-related protein 3 (Homo sapiens) (UniProt O95633)
- Sequence (O95633 whole entry, looked up): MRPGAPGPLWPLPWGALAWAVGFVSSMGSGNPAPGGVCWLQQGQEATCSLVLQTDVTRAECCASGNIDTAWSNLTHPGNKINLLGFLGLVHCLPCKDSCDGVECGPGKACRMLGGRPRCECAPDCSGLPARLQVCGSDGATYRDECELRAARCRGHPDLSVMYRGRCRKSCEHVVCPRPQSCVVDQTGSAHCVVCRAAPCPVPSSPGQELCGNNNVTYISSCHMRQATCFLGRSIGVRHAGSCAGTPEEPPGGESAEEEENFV
- ASSAY: FSTL3 binders on small-molecule microarrays, primary screen, biochemical, small-molecule microarray, 635 nm fluorescence (AID 1105);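 further: score merges emission near 667 nm and signal to noise per printed spot across three slides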
- APPLIED CONDITIONS: FSTL3 binding, higher = more signal
The following molecules are shown together with reported composite z-score values.
Give the figure by itself; no unit, no explanation.

Reference set (4 entries):
>>> numeric_result("O=C1C2C=CC(C(O)C(c3ccccc3)c3ccccc3)N(Nc3ccccc3)C2C(=O)N1c1ccccc1 (configuration not stated)")
1.44
>>> numeric_result("COCC(=C=CC[C@@H](O)c1cccc(OCCO)c1)C[C@@H](O)COCc1ccccc1")
0.416
>>> numeric_result("O=C1c2ccccc2[C@](Cc2ccccc2I)(C(=O)O)[C@H](c2ccc(CO)cc2)N1Cc1ccccc1")
-0.509
>>> numeric_result("CC(C)C[C@@H]1NC(=O)C([C@@H](C)OCc2ccccc2)NC(=O)[C@@]23C(=O)N[C@@H](Cc4ccccc4)C2[C@H](C)[C@@]2(C)O[C@H]2C3/C=C/CC/C=C/CNC1=O (some centres not stated)")
0.721

Form field: reported composite z-score of O=C(NCCO)C1=C[C@H](Oc2ccccc2I)[C@@H](O)[C@H](NCc2ccc(F)cc2)C1
-1.52

Could you tell me which composite z-score is on file for Cc1ccc(S[C@]2(C(=O)NCCN3CCOCC3)CC(=O)N(C3CCCCC3)[C@@H]2c2ccc(CO)cc2I)cc1 ?
1.19

Which measured composite z-score value corresponds to COc1ccc([Si](C)(C)[C@H]2[C@H](CCn3cc([C@H](O)c4ccccc4)nn3)O[C@@]3(C(=O)N(c4ccccc4)c4ccccc43)[C@@H]2C)cc1 ?
0.34

---

Reported composite z-score values follow for various compounds
- Tested on: Neuregulin-1 EGF-like domain
- ASSAY: binders of neuregulin-1 EGF-like domain, primary screen, biochemical, small-molecule microarray, 635 nm fluorescence (AID 1081);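 further: binding of the protein to compounds printed on small-molecule microarray slides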
- APPLIED CONDITIONS: small-molecule microarray binding, higher = more signal
Form: value (number only, do not type unit).

>>> numeric_result("CC(C)C[C@H]1NC(=O)[C@@]23C(=O)N[C@@H](Cc4ccccc4)C2[C@H](C)[C@@]2(C)O[C@H]2C3/C=C/C/C=C\\CNC(=O)[C@@H]2CCCN2C1=O (some centres not stated)")
0.665
>>> numeric_result("COc1ccc([Si](C)(C)[C@@H]2[C@@H](CC(=O)N(CCO)Cc3ccccc3)O[C@]3(C(=O)N(Cc4ccc(N5CCC5=O)cc4)c4ccccc43)[C@H]2C)cc1")
0.677
>>> numeric_result("Cc1ccc(S[C@]2(C(=O)NC3CC3)CC(=O)N(Cc3cc(C(F)(F)F)cc(C(F)(F)F)c3)[C@@H]2c2ccc(CO)cc2I)cc1")
1.27

Entry C=C(/C(=C/C[C@H](OC(=O)c1ccncc1)c1ccccc1OCCO)c1cc(C(=O)OC)ccc1OC)C(C)C , system Neuregulin-1 EGF-like domain: what composite z-score was measured?
1.28

Kindly state the measured composite z-score obtained for CC(C)(C)N1CC=CC23O[C@@H]4/C=C\CCCOC(=O)C4[C@H]2C(=O)N(CCCCCCO)[C@@H]3C1=O (some centres not stated) with Neuregulin-1 EGF-like domain.
0.781

# value lookup — system Neuregulin-1 EGF-like domain, readout composite z-score, item C=CC[C@]1(C(=O)N(C)C)COC(c2ccc(OCCCO)cc2)=N1
1.42

Find the measured composite z-score: item CCCC=C(CCC)[C@@H](NS(=O)(=O)c1ccc(Cl)cc1)c1ccccc1 , target or system Neuregulin-1 EGF-like domain.
-0.358

---

- TARGET ENTITY: Dickkopf-related protein 1 (Homo sapiens) (UniProt O94907)
- Sequence (O94907 whole entry, looked up): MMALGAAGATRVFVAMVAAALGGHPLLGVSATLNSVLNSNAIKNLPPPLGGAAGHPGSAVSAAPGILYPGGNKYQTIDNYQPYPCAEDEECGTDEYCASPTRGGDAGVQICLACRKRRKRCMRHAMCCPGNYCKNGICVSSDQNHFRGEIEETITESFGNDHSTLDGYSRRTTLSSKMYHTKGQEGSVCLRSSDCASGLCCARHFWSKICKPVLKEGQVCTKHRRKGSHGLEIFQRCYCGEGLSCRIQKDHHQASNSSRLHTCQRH
- ASSAY: DKK1 binders on small-molecule microarrays, primary screen, biochemical, small-molecule microarray, 635 nm fluorescence scan (AID 1106);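 further: score merges emission near 667 nm with signal to noise over three replicate slides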
- APPLIED CONDITIONS: DKK1 binding, higher = more signal
Everything with composite z-score lower than 0.1 is Criterion not met; everything else, including exactly 0.1, is Criterion met.

>>> assigned_class("C=CCC(OC(C)=O)[C@@H]1[C@@H](N(Cc2ccc(-c3cccc(C(F)(F)F)c3)o2)C(=O)Cc2ccc(F)cc2)c2cc(OCCCO)ccc2N1C(=O)c1ccc2ccccc2c1 (some centres not stated)")
"Criterion not met"
>>> assigned_class("[N-]=[N+]=Nc1ccccc1[C@@H]1OC(c2ccc(OCCCO)cc2)=N[C@]1(Cc1ccccc1)C(N)=O")
"Criterion not met"
>>> assigned_class("CO[C@H]1O[C@H](CO)[C@@H](OC(=O)Nc2ccc(C(F)(F)F)cc2)[C@H](OC(=O)Nc2ccccc2-c2ccccc2)[C@@H]1OC(=O)Nc1ccccc1-c1ccccc1")
"Criterion met"
>>> assigned_class("C=CCOC(=O)[C@H]1[C@@H]2C(=O)O[C@@H](c3ccccc3)[C@@H](c3ccccc3)N2[C@@H](c2ccc(OCCOC(=O)[C@@H]3C[C@@H]4C(=O)N[C@@H](CC(C)C)C(=O)N4[C@@H]3c3ccc(O)cc3)cc2)[C@]12C(=O)Nc1ccc(I)cc12")
"Criterion met"
>>> assigned_class("COC(=O)[C@@]1(Cc2ccc(F)cc2)[C@H]2c3cc(C(=O)N(C)C)n(CCn4cc([N+](=O)[O-])nc4C)c3C[C@H]2CN1C(=O)c1ccccc1")
"Criterion not met"

Does COC(=O)[C@@]1(Cc2ccc(F)cc2)[C@H]2c3cc(C(=O)N4CCCC4)n(CCO)c3C[C@H]2CN1C(=O)c1ccccc1 have a reported composite z-score of at least 0.1?
Criterion not met

---

- ASSAY: small-molecule microarray binders of probe aLefty2, primary screen, biochemical, biotinylated probe, 635/667 nm fluorescence (AID 1094);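 further: score merges spot fluorescence near 667 nm with spot signal-to-noise ratio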
- APPLIED CONDITIONS: higher = more signal
Catalogue of compounds with associated composite z-score

>>> result("C=CCC(OC(C)=O)[C@@H]1[C@@H](N(Cc2ccc(-c3cccc(C(F)(F)F)c3)o2)C(=O)c2cccc3ccccc23)c2cc(OCCCO)ccc2N1C(=O)c1ccc2ccccc2n1 (stereo not given in full)")
-0.0209
>>> result("Cc1c(NC(=O)/C(C#N)=C/c2ccc(Cl)cc2)c(=O)n(-c2ccccc2)n1C")
-0.0657
>>> result("COCCOC(=O)N1C(=O)[C@@]2(c3cc(C#CCC(C(=O)OC)C(=O)OC)ccc31)[C@H](C(N)=O)[C@H]1C(=O)O[C@H](c3ccccc3)[C@H](c3ccccc3)N1[C@@H]2c1ccc(OCCO)cc1")
0.0139
>>> result("COc1cc2c(cc1O)C(c1ccc(CN3CCCC3)cc1)N(Cc1ccc([N+](=O)[O-])o1)CC2 (stereo not given)")
-0.299
>>> result("CC1CC/C=C\\[C@H]2OC34C=CCN(c5ccc(Cl)cc5)C(=O)[C@H]3N(CCCO)C(=O)[C@]4(C)C2C(=O)O1 (stereo not given in full)")
-0.154
>>> result("COCCCNC(=O)[C@@H]1c2ccccc2C(=O)N(Cc2cc(C(F)(F)F)cc(C(F)(F)F)c2)[C@H]1c1ccc(CO)cc1")
-0.164
>>> result("C=C(CCCC)C(=O)CC[C@H](OC(C)=O)c1ccccc1OCCO")
-0.12
>>> result("[N-]=[N+]=NCc1ccccc1C[C@@]1(C(=O)O)N=C(c2ccc(OCCCO)cc2)O[C@@H]1c1ccccc1CN=[N+]=[N-]")
0.0829
>>> result("[N-]=[N+]=NCc1ccccc1[C@H]1OC(c2ccc(OCCCO)cc2)=N[C@@]1(Cc1ccccc1)C(=O)N1CCOCC1")
0.254
>>> result("CCCCN1CC=CC23O[C@@H]4C=CCOC(=O)[C@@H]4[C@H]2C(=O)N(CCO)[C@@H]3C1=O (stereo not given in full)")
0.221

Look up composite z-score for this compound: O=C1C2C=CC(C(O)c3cccc(O)c3)N(Nc3ccccc3F)C2C(=O)N1c1ccccc1 (stereo not given)
-0.192

State the recorded composite z-score for this entry: CC(C)C[C@H]1NC(=O)[C@@]23C(=O)N[C@@H](Cc4ccccc4)C2[C@H](C)[C@@]2(C)O[C@H]2C3/C=C/C/C=C\CNC(=O)[C@@H]2CCCN2C1=O (stereo not given in full)
-0.147

Form field: reported composite z-score of CCCCCCCCCCC(O)C1C=CC2C(=O)N(C)C(=O)C2N1N1CCCCC1 (stereo not given)
-0.118

Item O=C1C2C=CC(C(O)c3ccc([N+](=O)[O-])cc3)N(Nc3ccccc3)C2C(=O)N1c1ccccc1 (stereo not given) has what recorded composite z-score?
-0.0469

Reported composite z-score for C=CCC(OC(C)=O)[C@@H]1[C@@H](N(Cc2cc3ccccc3o2)C(=O)Cc2ccc(OC)cc2)c2cc(OCCCO)ccc2N1C(=O)Cc1ccc(OC)cc1 (stereo not given in full) : what is it?
-0.0757

---

- TARGET ENTITY: Neurogenic locus notch homolog protein 3 (Homo sapiens)
- ASSAY: NOTCH3 binders on small-molecule microarray, primary screen, biochemical, 635/667 nm fluorescence (AID 1096)
- APPLIED CONDITIONS: NOTCH3 binding, 635 nm fluorescence, higher = more signal
Label y when composite z-score is at or above 0.5; anything below gets n.

Take a look at these entries with their results.
>>> assigned_class("O=c1cccc(-c2ccccc2C(F)(F)F)o1")
"n"
>>> assigned_class("COC(=O)[C@@]1(CCS(=O)(=O)c2ccccc2)N=C(c2ccc(OCCCO)cc2)O[C@H]1c1ccccc1N=[N+]=[N-]")
"y"
>>> assigned_class("C=CCC(OC(C)=O)[C@@H]1[C@@H](N(Cc2ccc(-c3ccccc3)cc2)C(=O)c2ccc(-c3ccccc3)cc2)c2cc(OCCCO)ccc2N1C(=O)c1ccc2ccccc2n1 (some centres not stated)")
"n"
>>> assigned_class("CC(C)C[C@@H]1NC(=O)[C@@H]2C[C@H](C(=O)NCCCC[N+](C)(C)C)[C@H](c3ccc(O)cc3)N2C1=O")
"y"
>>> assigned_class("C=C(COC)/C(=C/C[C@@H](OC(C)=O)c1ccccc1OCCO)c1cc(C(=O)OC)ccc1OC")
"n"
>>> assigned_class("C=CCNC(=O)[C@H]1[C@@H]2C(=O)O[C@@H](c3ccccc3)[C@@H](c3ccccc3)N2[C@@H](c2ccc(O)cc2)[C@]12C(=O)Nc1ccc(C#CC3=CCCCC3)cc12")
"y"

Now consider the entry below.
Could you please find out whether NC(=O)NCC#Cc1ccc2c(c1)[C@]1(C(=O)N2)[C@H](C(=O)N2CCCCCCC2)[C@H]2C(=O)O[C@H](c3ccccc3)[C@H](c3ccccc3)N2[C@@H]1c1ccc(O)cc1 has composite z-score that meets 0.5 or exceeds it?
y

Provenance of the data: PubChem BioAssay
